- experimental_target: human NTCP (Homo sapiens)
- Sequence (Q14973 whole entry): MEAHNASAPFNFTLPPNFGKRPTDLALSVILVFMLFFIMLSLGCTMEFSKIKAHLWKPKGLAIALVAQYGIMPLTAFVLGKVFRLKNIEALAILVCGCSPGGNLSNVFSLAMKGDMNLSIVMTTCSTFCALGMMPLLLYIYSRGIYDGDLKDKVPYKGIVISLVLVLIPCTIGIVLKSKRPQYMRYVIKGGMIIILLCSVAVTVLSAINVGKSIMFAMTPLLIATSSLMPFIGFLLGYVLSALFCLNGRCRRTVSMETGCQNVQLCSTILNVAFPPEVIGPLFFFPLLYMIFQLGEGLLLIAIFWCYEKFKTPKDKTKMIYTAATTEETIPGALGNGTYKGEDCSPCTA
- test_description: Screening taurocholate uptake assay (96-well, [14C]taurocholate, 10 µM drug)
- run_conditions: ranking over the functional and the binding screening assay
Structures can show the parent of a compound that is named as a salt.
measurement_kind: Ranking score
Quick one: just the number, no unit, thanks!

compound	experimental_target	Ranking score
CC1(C)S[C@@H]2[C@H](NC(=O)[C@H](N)c3ccccc3)C(=O)N2[C@H]1C(=O)O [Ampicillin trihydrate]	human NTCP (Homo sapiens)	199.178
Cc1c(Nc2ncccc2C(=O)O)cccc1C(F)(F)F	human NTCP (Homo sapiens)	133.828
Nc1cc(N2CCCCC2)nc(N)[n+]1[O-]	human NTCP (Homo sapiens)	87.241
Br.C[N+]1([O-])[C@@H]2CC(OC(=O)[C@H](CO)c3ccccc3)C[C@H]1[C@@H]1O[C@@H]12 (stereo partly drawn) [Scopolamin-N-oxide hydrobromide]	human NTCP (Homo sapiens)	208.216
CCCOc1cc(N)ccc1C(=O)OCCN(CC)CC [Propoxycaine hydrochloride]	human NTCP (Homo sapiens)	73.2735

Reported Ranking score of CSc1ccc2c(c1)N(CCC1CCCCN1C)c1ccccc1S2 (stereo not drawn) [Thioridazine hydrochloride] : 203.814

// Ranking score value for CC(=O)NC[C@H]1CN(c2ccc(N3CCOCC3)c(F)c2)C(=O)O1 : 172.974

// O=c1[nH]c(=O)n([C@H]2C[C@H](O)[C@@H](CO)O2)cc1I : Ranking score value = 91.1921

Please fill in: Ranking score reported for O=C(O)CCCc1ccc(N(CCCl)CCCl)cc1 = 169.183

Briefly, Ranking score measured for O=C1c2c(O)cccc2Cc2cccc(O)c21 : 68.2788

Recorded Ranking score (compound CC(C)CC(N(C)C)C1(c2ccc(Cl)cc2)CCC1.Cl (stereo not drawn) [Sibutramine HCl] ): 211.232

get_value(item= Cc1onc(-c2ccccc2Cl)c1C(=O)N[C@@H]1C(=O)N2[C@@H]1SC(C)(C)[C@@H]2C(=O)[O-].[Na+] [Cloxacillin sodium salt] , readout=Ranking score) returns 243.228

Value of measured Ranking score for the entry CCCc1nc2c(C)cc(-c3nc4ccccc4n3C)cc2n1Cc1ccc(-c2ccccc2C(=O)O)cc1 : 165.804

# Ranking score of CCOC(=O)c1ccc(OC(=O)CCCCCN=C(N)N)cc1.CS(=O)(=O)O [Gabexate mesilate] = 203.005

Data point: CC(=O)N(CC(C)C(=O)O)c1c(I)cc(I)c(N)c1I (stereo not drawn) ; Ranking score = 232.635

Form field Ranking score, entry C[C@@H]1CCC[C@H](C)N1NC(=O)c1ccc(Cl)c(S(N)(=O)=O)c1 [Clopamide] : 216.069

The compound listed as Clc1ccc(CCC(Cn2ccnc2)Sc2c(Cl)cccc2Cl)cc1 (stereo not drawn) [Butoconazole nitrate] shows Ranking score equal to 196.25

# Ranking score of O=S(=O)(O)CCS = 127.75
